Each recorded value in this set is attributed to ChEMBL document CHEMBL5724914.

test-context: human gut metagenome, 24 h, 2 µM; further: call rule not given here
experimental-readout: Bacterial Biotransformation

Below are worked cases with known answers.
INSERT INTO results (molecule, experimental_readout, assay_value) VALUES
  ('COc1cc(C(=O)NCc2ccc(OCCN(C)C)cc2)cc(OC)c1OC [TRIMETHOBENZAMIDE]', 'Bacterial Biotransformation', 'Compound NOT metabolized'),
  ('Nc1nnc(-c2cccc(Cl)c2Cl)c(N)n1', 'Bacterial Biotransformation', 'Compound NOT metabolized'),
  ('Cc1nc(Nc2ncc(C(=O)Nc3c(C)cccc3Cl)s2)cc(N2CCN(CCO)CC2)n1 [DASATINIB ANHYDROUS]', 'Bacterial Biotransformation', 'Compound metabolized'),
  ('CN(C/C=C/C#CC(C)(C)C)Cc1cccc2ccccc12', 'Bacterial Biotransformation', 'Compound NOT metabolized'),
  ('Nc1nc(N)nc(-c2cc(Cl)ccc2Cl)n1.O=C(O)/C=C\C(=O)O [IRSOGLADINE MALEATE]', 'Bacterial Biotransformation', 'Compound NOT metabolized');

Report Bacterial Biotransformation for every entry below.
1. CC(=O)OCC(=O)[C@@]1(OC(C)=O)[C@@H](C)C[C@H]2[C@@H]3C[C@H](F)C4=CC(=O)C=C[C@]4(C)[C@@]3(F)[C@@H](O)C[C@@]21C [DIFLORASONE DIACETATE]
2. O=C(O)c1cc(/N=N/c2ccc(S(=O)(=O)Nc3ccccn3)cc2)ccc1O
3. CC(N)C12CC3CC(CC(C3)C1)C2 (stereo not drawn)

// result
1: Compound metabolized; 2: Compound metabolized; 3: Compound NOT metabolized

###

test-details: The drug is tested on Z-009 corresponding to pig gut metagenome with ENA study accession number: PRJEB37062 and ENA sample accession number: ERS12561809 for biotransformation under anaerobic condition. The drug concentrations were measured over 9 timepoints collected between 0 and 24 hours of incubation by liquid-chromatography-coupled mass spectrometry (LC–MS)
test-context: 2 µM
experimental-readout: Bacterial Biotransformation

Below are worked cases with known answers.
INSERT INTO measurements (compound, experimental_readout, assay_value) VALUES
  ('CC(=O)O[C@H]1C(=O)[C@@]2(C)[C@H]([C@H](OC(=O)c3ccccc3)[C@]3(O)C[C@H](OC(=O)[C@H](O)[C@@H](NC(=O)c4ccccc4)c4ccccc4)C(C)=C1C3(C)C)[C@]1(OC(C)=O)CO[C@@H]1C[C@@H]2O [PACLITAXEL]', 'Bacterial Biotransformation', 'Compound metabolized'),
  ('CC(C)(C)N.CCC[C@H](N[C@@H](C)C(=O)N1[C@H](C(=O)O)C[C@@H]2CCCC[C@@H]21)C(=O)OCC [PERINDOPRIL ERBUMINE]', 'Bacterial Biotransformation', 'Compound metabolized'),
  ('CN1CCCCC1CCN1c2ccccc2Sc2ccc([S+](C)[O-])cc21.O=S(=O)(O)c1ccccc1 (stereo not given) [MESORIDAZINE BESYLATE]', 'Bacterial Biotransformation', 'Compound metabolized'),
  ('O=C1N=C([O-])NC1(c1ccccc1)c1ccccc1.[Na+] [PHENYTOIN SODIUM]', 'Bacterial Biotransformation', 'Compound NOT metabolized'),
  ('CN1C[C@H](C(=O)N[C@]2(C)O[C@@]3(O)[C@@H]4CCCN4C(=O)[C@H](Cc4ccccc4)N3C2=O)C[C@@H]2c3cccc4[nH]cc(c34)C[C@H]21.CS(=O)(=O)O [DIHYDROERGOTAMINE MESYLATE]', 'Bacterial Biotransformation', 'Compound NOT metabolized'),
  ('CCOC(=O)C1=C[C@]2(CC)CCCN3CCc4c(n1c1ccccc41)[C@@H]32 [VINPOCETINE]', 'Bacterial Biotransformation', 'Compound metabolized'),
  ('CC(=O)SCC(Cc1ccccc1)C(=O)NCC(=O)OCc1ccccc1 (stereo not given) [RACECADOTRIL]', 'Bacterial Biotransformation', 'Compound metabolized'),
  ('CC12CC3CC(C)(C1)CC(N)(C3)C2 [MEMANTINE]', 'Bacterial Biotransformation', 'Compound NOT metabolized'),
  ('Cc1ccccc1C(OCCN(C)C)c1ccccc1.O=C(O)CC(O)(CC(=O)O)C(=O)O (stereo not given) [ORPHENADRINE CITRATE]', 'Bacterial Biotransformation', 'Compound metabolized');

Shifting focus to the compound that follows.
// query GET /values?readout=Bacterial Biotransformation&item= C[C@@H](c1ncncc1F)[C@](O)(Cn1cncn1)c1ccc(F)cc1F [VORICONAZOLE]
// result Compound metabolized

###

test-context: human gut metagenome, 24 h, 2 µM
experimental-readout: Bacterial Biotransformation

Below are worked cases with known answers.
INSERT INTO results (molecule, experimental_readout, assay_value) VALUES
  ('CN(C)C(=O)Oc1cc(OC(=O)N(C)C)cc(C(O)CNC(C)(C)C)c1 (configuration not stated) [BAMBUTEROL]', 'Bacterial Biotransformation', 'Compound metabolized'),
  ('Cc1nc(Nc2ncc(C(=O)Nc3c(C)cccc3Cl)s2)cc(N2CCN(CCO)CC2)n1 [DASATINIB ANHYDROUS]', 'Bacterial Biotransformation', 'Compound metabolized'),
  ('CC[C@H](C)C(=O)O[C@H]1CCC=C2C=C[C@H](C)[C@H](CC[C@@H]3C[C@@H](O)CC(=O)O3)[C@H]21 [MEVASTATIN]', 'Bacterial Biotransformation', 'Compound metabolized'),
  ('CCS(=O)(=O)CCn1c([N+](=O)[O-])cnc1C [TINIDAZOLE]', 'Bacterial Biotransformation', 'Compound metabolized'),
  ('CC(=O)O[C@H]1C(=O)[C@@]2(C)[C@H]([C@H](OC(=O)c3ccccc3)[C@]3(O)C[C@H](OC(=O)[C@H](O)[C@@H](NC(=O)c4ccccc4)c4ccccc4)C(C)=C1C3(C)C)[C@]1(OC(C)=O)CO[C@@H]1C[C@@H]2O [PACLITAXEL]', 'Bacterial Biotransformation', 'Compound NOT metabolized'),
  ('COc1ccc([C@@H]2Sc3ccccc3N(CCN(C)C)C(=O)[C@@H]2OC(C)=O)cc1 [DILTIAZEM]', 'Bacterial Biotransformation', 'Compound metabolized');

// query GET /values?readout=Bacterial Biotransformation&item= CN(C)CCOC(C)(c1ccccc1)c1ccccn1.O=C(O)CCC(=O)O (configuration not stated) [DOXYLAMINE SUCCINATE]
// result Compound NOT metabolized

###

test-details: The drug is tested on WLS-350 corresponding to human gut metagenome with ENA study accession number: PRJEB37062 and ENA sample accession number: ERS12561789 for biotransformation under anaerobic condition. The drug concentrations were measured over 9 timepoints collected between 0 and 24 hours of incubation by liquid-chromatography-coupled mass spectrometry (LC–MS)
test-context: 2 µM
experimental-readout: Bacterial Biotransformation

Below are worked cases with known answers.
INSERT INTO results (compound, experimental_readout, assay_value) VALUES
  ('CN1CCC[C@@H]1CCO[C@](C)(c1ccccc1)c1ccc(Cl)cc1.O=C(O)/C=C/C(=O)O [CLEMASTINE FUMARATE]', 'Bacterial Biotransformation', 'Compound metabolized'),
  ('CCCN1C[C@H](CSC)C[C@@H]2c3cccc4[nH]cc(c34)C[C@H]21.CS(=O)(=O)O [PERGOLIDE MESYLATE]', 'Bacterial Biotransformation', 'Compound NOT metabolized'),
  ('CN1CCN(C2=Nc3ccccc3Oc3ccc(Cl)cc32)CC1.O=C(O)CCC(=O)O [LOXAPINE SUCCINATE]', 'Bacterial Biotransformation', 'Compound NOT metabolized'),
  ('CC(=O)Nc1ccc(OC(C)=O)cc1 [DIACETAMATE]', 'Bacterial Biotransformation', 'Compound metabolized');

Report Bacterial Biotransformation for every entry below.
1. COc1ccc([C@@H]2Sc3ccccc3N(CCN(C)C)C(=O)[C@@H]2OC(C)=O)cc1 [DILTIAZEM]
2. N=C(N)NC(=O)Cc1c(Cl)cccc1Cl [GUANFACINE]
3. C=C[C@H]1CN2CC[C@H]1C[C@H]2[C@H](O)c1ccnc2ccc(OC)cc12.C=C[C@H]1CN2CC[C@H]1C[C@H]2[C@H](O)c1ccnc2ccc(OC)cc12.O.O.O=S(=O)(O)O [QUININE SULFATE]
4. CC(C)(C)NCC(O)COc1cccc2c1CC(O)C(O)C2 (stereo unspecified) [NADOLOL]

// result
1. Compound metabolized
2. Compound NOT metabolized
3. Compound NOT metabolized
4. Compound metabolized

Report Bacterial Biotransformation for every entry below.
1. CC[C@@]1(O)C(=O)OCc2c1cc1n(c2=O)Cc2cc3c(CN(C)C)c(O)ccc3nc2-1 [TOPOTECAN]
2. CN(C)CCC=C1c2ccccc2COc2ccccc21 [DOXEPIN]
3. CN(C)C(=O)Oc1cccc([N+](C)(C)C)c1.[Br-] [NEOSTIGMINE BROMIDE]

// result
1. Compound NOT metabolized
2. Compound NOT metabolized
3. Compound NOT metabolized

Report Bacterial Biotransformation for every entry below.
1. COC(=O)[C@H](c1ccccc1Cl)N1CCc2sccc2C1.O=S(=O)(O)O [CLOPIDOGREL BISULFATE]
2. CC(=O)O[C@]1(C(C)=O)CC[C@H]2[C@@H]3C=C(C)C4=CC(=O)CC[C@]4(C)[C@H]3CC[C@@]21C [MEGESTROL ACETATE]
3. CCOc1ccccc1OCCN[C@H](C)Cc1ccc(OC)c(S(N)(=O)=O)c1.Cl [TAMSULOSIN HYDROCHLORIDE]
4. CN1CCC(=C2c3ccccc3CC(=O)c3sccc32)CC1.O=C(O)/C=C/C(=O)O [KETOTIFEN FUMARATE]
5. CN(CCOc1ccc(CC2SC(=O)NC2=O)cc1)c1ccccn1.O=C(O)/C=C\C(=O)O (stereo unspecified) [ROSIGLITAZONE MALEATE]

// result
["Compound metabolized", "Compound metabolized", "Compound NOT metabolized", "Compound NOT metabolized", "Compound metabolized"]
